Molecular target: HbII (Phacoides pectinatus, UniProt P41261)
Experiment: biochemical
Conditions: Equilibrium dissociation constant (Kd), pH 7.5
pKd: −log10 of the molar value.
observationType: pKd

In [3]: df
Out[3]:
                        compound  result
0  F [fluoride, sodium fluoride]    2.43

* * *

Target: HbIII (Phacoides pectinatus)
Sequence (P41262 1-153): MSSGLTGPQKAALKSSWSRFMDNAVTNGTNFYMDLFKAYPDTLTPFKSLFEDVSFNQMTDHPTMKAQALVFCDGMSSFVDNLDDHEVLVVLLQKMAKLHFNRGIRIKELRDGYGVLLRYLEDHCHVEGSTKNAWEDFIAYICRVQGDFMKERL
Experiment: biochemical
Settings: Measured fluoride binding dissociation constant (Kd), pH 5.0
pKd: −log10 of the molar value.
observationType: pKd

>>> df
                        compound  observationtype  result
0  F [fluoride, sodium fluoride]              pKd    3.30

* * *

Target: HbII (Phacoides pectinatus, UniProt P41261)
Sequence (P41261 1-151): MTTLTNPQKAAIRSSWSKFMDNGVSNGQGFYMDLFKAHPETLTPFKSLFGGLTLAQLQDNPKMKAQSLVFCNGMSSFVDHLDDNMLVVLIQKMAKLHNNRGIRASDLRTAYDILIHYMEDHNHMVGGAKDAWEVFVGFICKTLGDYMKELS
Assay: biochemical
Conditions: Measured fluoride binding dissociation constant (Kd), pH 5.0
observationType: Kd (µM)

In [3]: df
Out[3]:
                        compound                             subjectoftest  result
0  F [fluoride, sodium fluoride]  HbII (Phacoides pectinatus, UniProt P41261)     330

* * *

Molecular target: HbII (Phacoides pectinatus, UniProt P41261)
Sequence (P41261 1-151): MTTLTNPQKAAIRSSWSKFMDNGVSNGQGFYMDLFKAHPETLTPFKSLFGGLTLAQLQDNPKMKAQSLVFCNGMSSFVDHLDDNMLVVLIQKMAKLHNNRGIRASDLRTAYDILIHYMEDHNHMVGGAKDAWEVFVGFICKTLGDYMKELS
Assay: biochemical
Conditions: Measured fluoride binding dissociation constant (Kd), pH 7.0
pKd: −log10 of the molar value.
observationType: pKd

In [3]: df
Out[3]:
                        compound  observationtype  result
0  F [fluoride, sodium fluoride]              pKd    3.00

* * *

Target: horse heart myoglobin (Mb) (Equus caballus, UniProt P68082)
Sequence (P68082 whole entry): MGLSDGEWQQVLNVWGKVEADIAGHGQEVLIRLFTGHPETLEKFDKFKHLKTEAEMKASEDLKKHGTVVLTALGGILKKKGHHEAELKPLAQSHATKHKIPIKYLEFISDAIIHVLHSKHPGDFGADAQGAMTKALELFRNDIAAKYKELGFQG
Test: biochemical
Conditions: Equilibrium dissociation constant (Kd), HHMb, pH 7.5
pKd: −log10 of the molar value.
observationType: pKd

>>> print(df.to_string())
                        compound  observationtype  result
0  F [fluoride, sodium fluoride]              pKd    1.39

* * *

Target: HbIII (Phacoides pectinatus)
Test: biochemical
Conditions: Measured fluoride binding dissociation constant (Kd), pH 7.0
observationType: Kd

In [3]: df
Out[3]:
                        molecule  result
0  F [fluoride, sodium fluoride]  3.1 mM

* * *

Target: HbI (Phacoides pectinatus, UniProt P41260)
Sequence (P41260 whole entry): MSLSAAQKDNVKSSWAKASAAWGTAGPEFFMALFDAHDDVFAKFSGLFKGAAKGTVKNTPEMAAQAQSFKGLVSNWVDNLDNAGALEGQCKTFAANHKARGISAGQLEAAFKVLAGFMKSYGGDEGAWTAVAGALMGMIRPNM
Experiment: biochemical
Details: Measured fluoride binding dissociation constant (Kd), pH 5.0
observationType: Kd

>>> df
                        compound                             subjectoftest  observationtype  result
0  F [fluoride, sodium fluoride]  HbI (Phacoides pectinatus, UniProt P41260)               Kd  100 mM

* * *

Target: HbIII (Phacoides pectinatus, UniProt P41262)
Experiment: biochemical
Conditions: Apparent Kd from non-linear fit, above pH 12
observationType: Kd (mM)

>>> df
                        compound  observationtype  outputunit  result
0  F [fluoride, sodium fluoride]               Kd          mM       4

* * *

Target: horse heart myoglobin (Mb) (Equus caballus)
Experiment: biochemical
Details: Measured fluoride binding dissociation constant (Kd), Mb, pH 7.0
observationType: Kd

In [3]: df
Out[3]:
                        compound  result
0  F [fluoride, sodium fluoride]   25 mM

* * *

Target: horse heart myoglobin (Mb) (Equus caballus)
Test: biochemical
Details: Measured fluoride binding dissociation constant (Kd), Mb, pH 5.0
pKd: −log10 of the molar value.
observationType: pKd

>>> df
                        compound  result
0  F [fluoride, sodium fluoride]    2.52
